- System Tested: CTP synthetase (CtpS E277R) (Escherichia coli, UniProt P0A7E5, E277R)
- Construct: full-length, 6XHis tag not cleaved
- Sequence (P0A7E5 2-545 E277R): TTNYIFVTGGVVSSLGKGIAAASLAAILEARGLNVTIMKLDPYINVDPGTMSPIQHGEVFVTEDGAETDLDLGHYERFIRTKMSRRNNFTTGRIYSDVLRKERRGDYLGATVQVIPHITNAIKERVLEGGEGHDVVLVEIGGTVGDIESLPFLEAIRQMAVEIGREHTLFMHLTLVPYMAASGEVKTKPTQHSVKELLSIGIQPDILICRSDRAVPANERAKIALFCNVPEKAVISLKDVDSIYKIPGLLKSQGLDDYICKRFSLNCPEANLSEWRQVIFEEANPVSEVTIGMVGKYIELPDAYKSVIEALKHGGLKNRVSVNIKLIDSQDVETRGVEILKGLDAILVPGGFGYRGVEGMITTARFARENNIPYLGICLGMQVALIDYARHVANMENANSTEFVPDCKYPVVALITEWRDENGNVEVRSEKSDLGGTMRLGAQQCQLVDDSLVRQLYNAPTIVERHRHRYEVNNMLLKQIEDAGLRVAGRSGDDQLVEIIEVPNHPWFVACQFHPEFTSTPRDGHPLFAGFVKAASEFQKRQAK
- Experiment Notes: CTP inhibition of CTP synthesis by purified enzyme (absorbance at […] nm), […] enzyme
pIC50: −log10 of the molar value.
Measurement Label: pIC50

Nc1ccn([C@@H]2O[C@H](COP(=O)(O)OP(=O)(O)OP(=O)(O)O)[C@@H](O)[C@H]2O)c(=O)n1 [CTP] ... 3.08
